# T/C per entry
tested on: P388 leukemia ip, CD2F1 mice, survival T/C; experiment: NCI In Vivo Anticancer Drug Screen. Data for tumor model P388 Leukemia (intraperitoneal) in CD2F1 (CDF1) mice; conditions: endpoint: median survival time; dose: 50.0 mg/kg/injection; schedule: Q01DX005 (ip); vehicle: saline with Tween-80; higher = longer survival
Inconclusive results and toxic doses are left out.
observable: T/C

>>> reportedmeasurement("Cn1c(NCCN2CCOCC2)c(C(=O)/C=C/c2ccccc2)c(=O)n(C)c1=O")
"98 % of control"
>>> reportedmeasurement("CC(=O)NC1CCC(C2CCCCC2)CC1C1CCCCC1 (configuration not stated)")
"107 % of control"
>>> reportedmeasurement("C/C(=N\\NC(=S)Nc1cccc(F)c1)c1ccccn1")
"109 % of control"
>>> reportedmeasurement("Cc1cc(=O)n(-c2ccc([N+](=O)[O-])cc2)c(C)c1C(=O)O")
"98 % of control"
>>> reportedmeasurement("CN1C(=O)CC2C(=O)N(Cc3ccccc3)C(=O)C2C1=O (configuration not stated)")
"101 % of control"
>>> reportedmeasurement("CC(C)CC(NC(=O)C(C)N)C(=O)OC(C)(C)C (configuration not stated)")
"101 % of control"
>>> reportedmeasurement("Nc1nc(SCC(=O)O)[nH]c(=O)c1N")
"91 % of control"
>>> reportedmeasurement("COC(=O)c1cc(=O)nc(N/N=C/c2ccc3c(c2)OCO3)s1")
"94 % of control"
>>> reportedmeasurement("O=S1(=O)CCC(N(/N=C/c2ccco2)c2ccccc2)C1 (configuration not stated)")
"95 % of control"
>>> reportedmeasurement("CC1C2(c3ccccc3)C(C(=O)c3ccccc3)NC(c3ccccc3)C12c1ccccc1 (configuration not stated)")
"87 % of control"
>>> reportedmeasurement("Nc1nc(=S)c2ncn(C3OC(CO)C(O)C3O)c2[nH]1 (configuration not stated)")
"120 % of control"
>>> reportedmeasurement("Nc1nnc(SCCCCCCSc2nnc(N)s2)s1")
"86 % of control"

====

test system: P388 leukemia ip, CD2F1 mice, survival T/C; assay: NCI In Vivo Anticancer Drug Screen. Data for tumor model P388 Leukemia (intraperitoneal) in CD2F1 (CDF1) mice; conditions: endpoint: median survival time; dose: 7.5 mg/kg/injection; schedule: Q01DX005 (ip); vehicle: saline with Tween-80; higher = longer survival
Toxic doses and inconclusive results are not listed.
observable: T/C

>>> reportedmeasurement("CNC(=O)OCC1=CC(=O)C(OC)=C(OC)C1=O")
"104 % of control"
>>> reportedmeasurement("Cc1no[n+]([O-])c1NC(=O)OCc1ccccc1")
"96 % of control"
>>> reportedmeasurement("c1ccc(N=c2cnc3c(ccc4ccccc43)o2)cc1")
"112 % of control"
>>> reportedmeasurement("CC1=C(N(C)C)C(=O)N(c2ccccc2)CN1C")
"102 % of control"

====

system: P388 leukemia ip, CD2F1 mice, survival T/C; experiment: NCI In Vivo Anticancer Drug Screen. Data for tumor model P388 Leukemia (intraperitoneal) in CD2F1 (CDF1) mice; conditions: endpoint: median survival time; dose: 400.0 mg/kg/injection; schedule: Q04DX003 (ip); vehicle: Klucel (hydroxypropylcellulose) (HPC); higher = longer survival
Toxic doses and inconclusive results are not listed.
observable: T/C

>>> reportedmeasurement("CN(C)C(=S)S/C=C\\C(=O)O")
"88 % of control"
>>> reportedmeasurement("CCCCCCC1NC(CCCCCC)N2C(CCCCCC)N12 (stereo not given)")
"93 % of control"
>>> reportedmeasurement("CCCCCCCCOC(=O)c1[nH]cnc1/N=N\\N(C)C")
"104 % of control"
>>> reportedmeasurement("COc1ccc(-c2csc(N)n2)cc1OC")
"102 % of control"
>>> reportedmeasurement("CN(C)S(=O)(=O)N1CCOCC1")
"110 % of control"
>>> reportedmeasurement("Cn1nnc(-c2ccc([N+](=O)[O-])cc2)n1")
"103 % of control"
>>> reportedmeasurement("O=C1CC2(CCCCC2)CC(=O)N1c1ccc(O)c(CN(Cc2ccccc2)Cc2ccccc2)c1")
"93 % of control"
>>> reportedmeasurement("COc1ccc(/C(C#N)=C\\c2ccc(N(C)C)cc2)cc1")
"105 % of control"
>>> reportedmeasurement("CN(C)c1ccc(/C=C/C(=O)c2nc3ccccc3[nH]2)cc1")
"86 % of control"
>>> reportedmeasurement("COc1ccc(N2CCN(/C=C3\\Cc4c(F)cccc4C3=O)CC2)cc1")
"101 % of control"
